- test.system: Sterol O-acyltransferase 1 (Rattus norvegicus, UniProt O70536)
- Sequence (O70536 whole entry): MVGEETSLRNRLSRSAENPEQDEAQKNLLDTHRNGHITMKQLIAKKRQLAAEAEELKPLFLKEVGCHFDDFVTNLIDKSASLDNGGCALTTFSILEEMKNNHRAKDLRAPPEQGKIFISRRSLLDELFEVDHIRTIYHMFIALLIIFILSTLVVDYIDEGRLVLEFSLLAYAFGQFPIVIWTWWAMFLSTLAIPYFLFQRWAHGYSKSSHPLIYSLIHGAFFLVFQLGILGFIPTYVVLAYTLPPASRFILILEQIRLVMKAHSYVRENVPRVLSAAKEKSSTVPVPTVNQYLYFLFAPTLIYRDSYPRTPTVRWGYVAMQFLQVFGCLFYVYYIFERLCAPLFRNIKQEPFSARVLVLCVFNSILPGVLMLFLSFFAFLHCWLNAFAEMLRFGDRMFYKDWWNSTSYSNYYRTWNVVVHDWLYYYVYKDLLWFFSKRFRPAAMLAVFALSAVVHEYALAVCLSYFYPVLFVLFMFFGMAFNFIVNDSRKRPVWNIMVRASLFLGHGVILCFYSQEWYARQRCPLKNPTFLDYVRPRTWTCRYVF
- procedure.summary: In vitro Acyl coenzyme A:cholesterol acyltransferase inhibition in hepatic microsomes isolated from cholesterol-fed rats
pIC50: −log10 of the molar value.
property.measured: pIC50

compound: CCCCCCCCCCCCC(C)(C)OC(=O)C(C(=O)Nc1c(C(C)C)cccc1C(C)C)c1ccccc1 (stereo not given)
experimental.result: 7.92

P. CCCCCCCCCCCCOC(=O)C(C(=O)Nc1c(C(C)C)cccc1C(C)C)c1ccccn1 (stereo not given)
Q. CCCCCCCCCCCCC(C)OC(=O)C(C(=O)Nc1c(OC)cc(OC)cc1OC)c1ccccc1 (stereo not given)
R. CCCCCCCCCCCCCCCCCCOC(=O)C(C(=O)Nc1c(C(C)C)cccc1C(C)C)c1ccccc1 (stereo not given)
Prompt line: Rank items: key pIC50, increasing. Note for the reader: the ranking is given by listing the labels in the order requested.
Response line: R, Q, P
